// merged dataset of pKi values, system = Carbonic anhydrase 9 (Homo sapiens), multiple refs
pKi here is simply -log10 of the concentration when that concentration is written in mol/L.

Can you share its pKi? I mean this compound: `NS(=O)(=O)c1ccc(N2CC[C@@H](NC(=S)Nc3ccc(F)cc3)C2)nc1` 7.51

Can you share its pKi? I mean this compound: `CCN(CC)C(=S)NC(=O)c1cc2ccccc2oc1=O` 6.42

Can you share its pKi? I mean this compound: `Cc1ccc(-c2cc(C(=O)Nc3ccc(S(N)(=O)=O)cc3)[nH]n2)c(O)c1` 7.10

Can you share its pKi? I mean this compound: `Cc1ccc(C2=C/C(=C\c3ccccc3)C(=O)N2CCc2ccc(S(N)(=O)=O)cc2)cc1` 6.93

Can you share its pKi? I mean this compound: `NS(=O)(=O)c1ccc(NCc2cn(CCCS(=O)(=O)[O-])nn2)cc1.[Na+]` 6.34

Can you share its pKi? I mean this compound: `Cc1ccc(NS(=O)(=O)c2ccc(Nc3ncc4c(n3)CCCC4=O)cc2)cc1` 5.98

Can you share its pKi? I mean this compound: `Cc1ccc(C2=C/C(=C\c3ccc(Br)cc3)C(=O)N2CCc2ccc(S(N)(=O)=O)cc2)cc1` 7.07

Can you share its pKi? I mean this compound: `C=CCc1ccc(OCc2cn(CCCCCCCCCOc3ccc4ccc(=O)oc4c3)nn2)c(OC)c1` 6.72

Can you share its pKi? I mean this compound: `N#CCCN(CCc1ccccc1)CC(=O)N(CCc1ccc(S(N)(=O)=O)cc1)Cc1ccc(F)cc1` 8.52

Can you share its pKi? I mean this compound: `Cc1ccc(C(=O)Nc2cccc(C(=O)NC(=S)Nc3ccc(S(N)(=O)=O)cc3)c2)cc1` 7.51

Can you share its pKi? I mean this compound: `COc1ccc(-c2nc(-c3ccccc3)c(-c3ccccc3)n2-c2ccc(S(N)(=O)=O)cc2)cc1` 5.13

Can you share its pKi? I mean this compound: `NS(=O)(=O)c1ccc(CCN2C(=O)/C(=C/c3ccc(Cl)cc3)C=C2c2ccccc2)cc1` 6.97

Can you share its pKi? I mean this compound: `NS(=O)(=O)c1ccc(-n2c(-c3ccc(O)cc3)nc(-c3ccccc3)c2-c2ccccc2)cc1` 5.08

Can you share its pKi? I mean this compound: `CCn1c(C(=O)Nc2ccc(S(N)(=O)=O)cc2)cc2sccc21` 6.60

Can you share its pKi? I mean this compound: `NS(=O)(=O)c1ccc(N2CC[C@@H](NC(=S)Nc3ccccc3)C2)nc1` 7.59

Can you share its pKi? I mean this compound: `O=C(NC(=S)NN1CCCCC1)c1cc2ccccc2oc1=O` 6.41
